target_entity: Adenosine A2 receptor (Rattus norvegicus) (UniProt P29276+P30543)
procedure_text: Inhibition of radioligand R[3H]-CGS 21680 binding to adenosine A2 receptors in rat striatal membrane at 20 uM concentration.
Assay type: cell membranes
cond: Striatum
outcome_measure: inhibition (%)

These recorded examples may help you get a feel for the data.
{"smiles_code": "Cn1c(=O)[nH]c2c(cnn2-c2ccc(N)cc2)c1=N", "units_symbol": "%", "inhibition": 0}
{"smiles_code": "Cn1c(=O)[nH]c2c(cnn2-c2ccc([N+](=O)[O-])cc2)c1=N", "units_symbol": "%", "inhibition": 0}
{"smiles_code": "Cn1c(=O)[nH]c2c(cnn2-c2cccc(Cl)c2)c1=N", "units_symbol": "%", "inhibition": 29}
{"smiles_code": "N=c1c2cnn(-c3ccccc3)c2[nH]c(=O)n1-c1ccccc1", "units_symbol": "%", "inhibition": 0}
{"smiles_code": "Cn1c(=O)[nH]c2c(cnn2-c2ccccc2N)c1=N", "units_symbol": "%", "inhibition": 0}

[a] CCCn1c(=O)[nH]c2c(cnn2-c2cccc(Cl)c2)c1=N
[b] Cn1c(=O)[nH]c2c(cnn2C)c1=N
[c] CCCn1c(=O)[nH]c2c(cnn2-c2ccccc2)c1=N
Q: Please give the order of these compounds when sorted by inhibition, largest value leading. Dear reader, please state the labels in the requested order.
A: a, c, b

---

target_entity: Adenosine receptor A1 (Rattus norvegicus)
procedure_text: Inhibition of radioligand R[3H]-N6-PIA binding to adenosine A1 receptors in rat whole brain membrane at 20 uM concentration.
Format: cell membranes
outcome_measure: inhibition (%)

{"smiles_code": "CCCn1ncc2c(=N)n(C)c(=O)[nH]c21", "target_entity": "Adenosine receptor A1 (Rattus norvegicus)", "readout_value": 5}
{"smiles_code": "Cn1c(=O)[nH]c2c(cnn2-c2ccc([N+](=O)[O-])cc2)c1=N", "target_entity": "Adenosine receptor A1 (Rattus norvegicus)", "readout_value": 5}
{"smiles_code": "Cn1c(=O)[nH]c2c(cnn2-c2cc(Cl)ccc2Cl)c1=N", "target_entity": "Adenosine receptor A1 (Rattus norvegicus)", "readout_value": 1}
{"smiles_code": "CCCn1c(=O)[nH]c2c(cnn2-c2ccccc2)c1=N", "target_entity": "Adenosine receptor A1 (Rattus norvegicus)", "readout_value": 52}
{"smiles_code": "Cn1c(=O)[nH]c2c(cnn2-c2ccccc2)c1=N", "target_entity": "Adenosine receptor A1 (Rattus norvegicus)", "readout_value": 30}
{"smiles_code": "CCn1c(=O)[nH]c2c(cnn2-c2ccccc2)c1=N", "target_entity": "Adenosine receptor A1 (Rattus norvegicus)", "readout_value": 58}

[1] Cn1c(=O)[nH]c2c(cnn2-c2ccccc2F)c1=N
[2] Cn1c(=O)[nH]c2c(cnn2-c2ccc(N)cc2)c1=N
Q: Between 1 and 2 , whose measured inhibition reads higher? Write down the label of the entry you select.
A: 1
(1: 8%, 2: 0%)

---

procedure_text: Hydrophobicity index measured by retention time on a reverse phase HPLC column.
Type: ADME
outcome_measure: k'

{"smiles_code": "Cn1c(=O)[nH]c2c(cnn2-c2ccc(F)cc2)c1=N", "k'": 4.1}

[a] Cn1c(=O)[nH]c2c(cnn2-c2ccc(Br)cc2)c1=N
[b] CCCn1ncc2c(=N)n(C)c(=O)[nH]c21
Q: Hey, between a and b which has a smaller measured k'? // return label of chosen record
A: b

[P] Cn1c(=O)[nH]c2c(cnn2-c2cccc(Br)c2)c1=N
[Q] Cn1c(=O)[nH]c2c(cnn2-c2ccccc2N)c1=N
Q: For this pair, P and Q , which shows a numerically higher k'? Refer to your chosen item by its label in the answer.
A: P

[P] Cn1c(=O)[nH]c2c(cnn2-c2cccc(Cl)c2)c1=N
[Q] Cn1c(=O)[nH]c2c(cnn2-c2ccc(N)cc2)c1=N
Q: Between P and Q , whose measured k' reads higher? Your choice should be expressed through its label.
A: P
(P: 14.2, Q: 0.3)

[P] CCCCn1c(=O)[nH]c2c(cnn2-c2ccccc2)c1=N
[Q] Cn1c(=O)[nH]c2c(cnn2-c2cc(Cl)ccc2Cl)c1=N
[R] Cn1c(=O)[nH]c2c(cnn2C)c1=N
Q: Rank order required: k', descending. Respond with the label ranking, as requested.
A: P, Q, R
(P: 18.5, Q: 4.8, R: 0.1)

[A] Cn1c(=O)[nH]c2c(cnn2-c2ccc(Cl)cc2)c1=N
[B] N=c1c2cnn(-c3ccccc3)c2[nH]c(=O)n1-c1ccccc1
Q: Task for the reader: decide whether A or B has the larger k'. Please indicate the selected item by its label.
A: A
(A: 13.6, B: 5.1)
